B1: glmS ribozyme (parent)
chain: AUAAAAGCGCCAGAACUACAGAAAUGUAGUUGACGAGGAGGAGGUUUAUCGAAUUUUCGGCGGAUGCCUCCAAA

Variants of: B1
Experiment: self-cleavage kobs at 10000 uM GlcN6P; higher = faster cleavage; RNA array
Details: with glucosamine-6-phosphate
Fewer inactive variants are shown than the library holds.
quantityMeasured: self-cleavage kobs at 10000 uM GlcN6P

Problem: May I ask what self-cleavage kobs at 10000 uM GlcN6P has been recorded for A12U G40U C61A ?
Solution: < 1e-05 s⁻¹

Problem: May I ask what self-cleavage kobs at 10000 uM GlcN6P has been recorded for C8G A36C A53C ?
Solution: < 1e-05 s⁻¹

Problem: May I ask what self-cleavage kobs at 10000 uM GlcN6P has been recorded for C11U A64U C67G ?
Solution: < 1e-05 s⁻¹

Problem: May I ask what self-cleavage kobs at 10000 uM GlcN6P has been recorded for C11A G43U ?
Solution: < 1e-05 s⁻¹

Problem: May I ask what self-cleavage kobs at 10000 uM GlcN6P has been recorded for A33G C58A ?
Solution: < 1e-05 s⁻¹

Problem: May I ask what self-cleavage kobs at 10000 uM GlcN6P has been recorded for C11G G66A ?
Solution: < 1e-05 s⁻¹

Problem: May I ask what self-cleavage kobs at 10000 uM GlcN6P has been recorded for C10G C11A G38C G43U G51C U56C G60C ?
Solution: < 1e-05 s⁻¹

Problem: May I ask what self-cleavage kobs at 10000 uM GlcN6P has been recorded for A14U G37C G59C C67U ?
Solution: < 1e-05 s⁻¹

Problem: May I ask what self-cleavage kobs at 10000 uM GlcN6P has been recorded for U56G U57G ?
Solution: < 1e-05 s⁻¹

Problem: May I ask what self-cleavage kobs at 10000 uM GlcN6P has been recorded for G7U C8G C16A ?
Solution: < 1e-05 s⁻¹

Problem: May I ask what self-cleavage kobs at 10000 uM GlcN6P has been recorded for C16U G41A G59U ?
Solution: < 1e-05 s⁻¹

Problem: May I ask what self-cleavage kobs at 10000 uM GlcN6P has been recorded for C10G G37A ?
Solution: < 1e-05 s⁻¹

Problem: May I ask what self-cleavage kobs at 10000 uM GlcN6P has been recorded for A39U G40U C70U ?
Solution: 0.00219 s⁻¹

Problem: May I ask what self-cleavage kobs at 10000 uM GlcN6P has been recorded for C8A A15G U54A ?
Solution: < 1e-05 s⁻¹

Problem: May I ask what self-cleavage kobs at 10000 uM GlcN6P has been recorded for U57G G62C A64U ?
Solution: < 1e-05 s⁻¹

Problem: May I ask what self-cleavage kobs at 10000 uM GlcN6P has been recorded for G38C G66U ?
Solution: < 1e-05 s⁻¹

Problem: May I ask what self-cleavage kobs at 10000 uM GlcN6P has been recorded for C8U A53U ?
Solution: < 1e-05 s⁻¹

Problem: May I ask what self-cleavage kobs at 10000 uM GlcN6P has been recorded for C8U C16A A39C C58U A64G C67G ?
Solution: < 1e-05 s⁻¹

Problem: May I ask what self-cleavage kobs at 10000 uM GlcN6P has been recorded for A48U U54C C68U ?
Solution: 9.01e-05 s⁻¹

Problem: May I ask what self-cleavage kobs at 10000 uM GlcN6P has been recorded for G41U C58G ?
Solution: < 1e-05 s⁻¹

Problem: May I ask what self-cleavage kobs at 10000 uM GlcN6P has been recorded for A15G G29U ?
Solution: 0.00145 s⁻¹

Problem: May I ask what self-cleavage kobs at 10000 uM GlcN6P has been recorded for C8U G40U C70A ?
Solution: < 1e-05 s⁻¹

Problem: May I ask what self-cleavage kobs at 10000 uM GlcN6P has been recorded for G32A U45G ?
Solution: 0.000488 s⁻¹

Problem: May I ask what self-cleavage kobs at 10000 uM GlcN6P has been recorded for A12U G59A C67G ?
Solution: 4.16e-05 s⁻¹

Problem: May I ask what self-cleavage kobs at 10000 uM GlcN6P has been recorded for G37C U55A A64G ?
Solution: 6.99e-05 s⁻¹

Problem: May I ask what self-cleavage kobs at 10000 uM GlcN6P has been recorded for A53C U69C ?
Solution: 0.00127 s⁻¹

Problem: May I ask what self-cleavage kobs at 10000 uM GlcN6P has been recorded for A48C U69G C70U ?
Solution: < 1e-05 s⁻¹

Problem: May I ask what self-cleavage kobs at 10000 uM GlcN6P has been recorded for G13U A15C U54C ?
Solution: 0.000122 s⁻¹

Problem: May I ask what self-cleavage kobs at 10000 uM GlcN6P has been recorded for A42G U46A ?
Solution: 0.00455 s⁻¹

Problem: May I ask what self-cleavage kobs at 10000 uM GlcN6P has been recorded for G13A U47C ?
Solution: 4.92e-05 s⁻¹

Problem: May I ask what self-cleavage kobs at 10000 uM GlcN6P has been recorded for U47G C67G ?
Solution: 0.000816 s⁻¹
